Experiment: Caspase-3/7 induction in CHO-K1 cells by small molecules, qHTS cell viability counter screen (AID 1346979); note: nearly all actives have a fitted effect of over 35% in size; note: potency is the fitted concentration of half-maximal effect
Details: CellTiter-Fluor fluorescence, 17 h; series mostly up to 92.4 µM
Source text: National Center for Advancing Translational Sciences [NCATS] NIH Chemical Genomics Center [NCGC] U.S. Environmental Protection Agency [EPA] National Institutes of Environmental Health Sciences [NIEHS] National Toxicology Program [NTP] U.S. Food and Drug Administration [FDA] Apoptosis is a process of programmed cell death and plays a central role in the development of multicellular organisms. […]
Results filed as inconclusive are left out. Active and inactive are the calls of the source. Calls come from the whole dose curve; as a rule, active = well fitted cell-killing curve with a large enough effect in the repeat runs; inconclusive = weak or mixed curves, or effect the other way; inactive = no such curve, though single readings can be large or run the other way.
Property: Potency

Compound	Potency
CC(=O)N(c1onc(C)c1C)S(=O)(=O)c1ccc(N)cc1	inactive
O=C(CCCCCCC(=O)Nc1ccccc1)NO	13.3 µM (active)
CCc1cccc(N(C)C(N)=Nc2cccc3ccccc23)c1	inactive
COc1cc2c(N3CCN(C(=O)Nc4ccc(OC(C)C)cc4)CC3)ncnc2cc1OCCCN1CCCCC1	23.7 µM (active)
CCCCC1C(=O)N(c2ccccc2)N(c2ccc(O)cc2)C1=O (configuration not stated)	3.76 µM (active)
CCOC(=O)CC(=O)C(=O)OCC	inactive

Kindly consider the entry below.
Q: Using the record for CC1(C)O[C@@H]2C[C@H]3[C@@H]4CCC5=CC(=O)C=C[C@]5(C)[C@H]4[C@@H](O)C[C@]3(C)[C@]2(C(=O)CO)O1 , report its Potency.
Ans: inactive

---

test: Caspase-3/7 induction in CHO-K1 cells by small molecules, qHTS cell viability counter screen (AID 1346979); details: CellTiter-Fluor fluorescence, 17 h; series mostly up to 92.4 µM; note: nearly all actives have a fitted effect of over 35% in size
Results filed as inconclusive are left out. Active and inactive are the calls of the source. The call rests on the fitted dose curve; in most records, active means well fitted cell-killing curve with a large enough effect in the repeat runs; inconclusive means weak or mixed curves, or effect the other way; inactive means no such curve, though single readings can be large or run the other way.
Pick one and only one: active, inactive

Compound	Category
CC(COc1ccc(C(C)(C)C)cc1)OS(=O)OCCCl (stereo unspecified)	active

Q: How was C=CCOC(=O)/C=C\C(=O)OCC=C classified in this test?
Ans: inactive

Q: How was CCC(=O)OC/C=C/c1ccccc1 classified in this test?
Ans: inactive

Q: How was C/C=C(\C)C(=O)OCCC(C)CCC=C(C)C (stereo unspecified) classified in this test?
Ans: inactive

Q: How was C[N+]1(C)CCC(=C(c2ccccc2)c2ccccc2)CC1 classified in this test?
Ans: inactive

Q: How was NC(=O)N(O)[C@@H]1C=C[C@H](Oc2cccc(Oc3ccc(F)cc3)c2)C1 classified in this test?
Ans: active

Q: How was CCCCCCCCCCCC[N+](C)(C)CCCS(=O)(=O)[O-] classified in this test?
Ans: inactive

---

assay: qHTS assay to identify aromatase inhibitors - cell viability counter screen (AID 743084); details: MCF-7 aro ERE viability, CellTiter-Fluor, 24 h; series mostly up to 70.3 µM;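 note: cells stimulated with testosterone during compound exposure; nearly all actives have a fitted effect of over 55% in size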
Results filed as inconclusive are left out. The source made the active and inactive calls. Calls follow the shape of the dose curve; as a rule, active = well fitted cell-killing curve with a large enough effect in the repeat runs; inconclusive = weak or mixed curves, or effect the other way; inactive = no such curve, though single readings can be large or run the other way.
Pick one and only one: active, inactive

Q: How was COc1cc2c(cc1OC)-c1cc(=Nc3c(C)cc(C)cc3C)n(C)c(=O)n1CC2 classified in this test?
Ans: active

Q: How was CC[C@@H]([C@H](C)O)n1ncn(-c2ccc(N3CCN(c4ccc(OC[C@@H]5CO[C@@](Cn6cncn6)(c6ccc(F)cc6F)C5)cc4)CC3)cc2)c1=O classified in this test?
Ans: inactive

Q: How was CCCCCCCCCCCC[N+](C)(C)CCCS(=O)(=O)[O-] classified in this test?
Ans: inactive

Q: How was CNCCCC1c2ccccc2C=Cc2ccccc21 classified in this test?
Ans: inactive

Q: How was CC(C)C(OC(=O)c1ccccc1)C(C)(C)COC(=O)c1ccccc1 (stereo unspecified) classified in this test?
Ans: inactive

Q: How was CC(C)CCCC(=O)O classified in this test?
Ans: inactive

Q: How was O=c1[nH]c2ccc(S(=O)CCN3CCC(Cc4ccc(F)cc4)CC3)cc2o1 (stereo unspecified) classified in this test?
Ans: inactive
